- SUBJECT OF TEST: Type-1 angiotensin II receptor A (Rattus norvegicus) (UniProt P25095)
- Sequence (whole entry): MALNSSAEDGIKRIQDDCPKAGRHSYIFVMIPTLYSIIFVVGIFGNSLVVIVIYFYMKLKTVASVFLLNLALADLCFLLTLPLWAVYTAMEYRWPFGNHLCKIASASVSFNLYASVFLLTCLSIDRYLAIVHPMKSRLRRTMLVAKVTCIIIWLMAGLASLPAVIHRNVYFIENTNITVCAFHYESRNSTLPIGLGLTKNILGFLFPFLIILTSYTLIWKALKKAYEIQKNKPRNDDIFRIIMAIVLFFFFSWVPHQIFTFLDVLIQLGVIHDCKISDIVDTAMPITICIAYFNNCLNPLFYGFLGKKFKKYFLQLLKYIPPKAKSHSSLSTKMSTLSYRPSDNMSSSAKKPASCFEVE
- ASSAY SUMMARY: Antagonist activity at AT1 receptor in rat aorta
- Assay type: functional, tissue-based
PROPERTY MEASURED: pA10
Would you mind answering with just the numeric figure?

Solved entries (count: 5):
>>> reported_measurement("CCCCc1nc2cc(N)ccc2n1Cc1ccc(-c2ccccc2C(=O)O)cc1")
7
>>> reported_measurement("CCOc1nc2cccc(C(=O)O)c2n1Cc1ccc(-c2ccccc2-c2nnn[nH]2)cc1")
7.1
>>> reported_measurement("CCCCc1nc2cc(NC(=O)CCC)ccc2n1Cc1ccc(-c2ccccc2C(=O)O)cc1")
4.4
>>> reported_measurement("CCCCc1nc2cc(NC(=O)c3ccc(Cl)cc3)ccc2n1Cc1ccc(-c2ccccc2C(=O)O)cc1")
5.4
>>> reported_measurement("CCCCc1nc2cc(NC(C)=O)ccc2n1Cc1ccc(-c2ccccc2C(=O)O)cc1")
5.9

Could you now look at the following compound, please?
### Prompt Using the record for `CCCCc1nc2cc(NC(=O)CC)ccc2n1Cc1ccc(-c2ccccc2C(=O)O)cc1` , state its measured pA10.
### Response 4.7
